Tested on: AMPA receptor ([^3 H]AMPA binding, crude membranes of rat forebrain)
Assay: [^3 H]-AMPA displacement, EAA receptor binding
Conditions: 10 μM test compound, [^3 H]AMPA 5 nM, 100 mM KSCN
Listed here: items and their measured AMPA % DSPL @ 10 μM.
Express the result in % but write the number alone.

Form field AMPA % DSPL @ 10 μM, entry O=c1[nH]c2cc(Cl)ccc2c2ccnn12 [Compound 31] : 46

Form field AMPA % DSPL @ 10 μM, entry O=c1[nH]c2ccc(Br)cc2n2nnnc12 [Compound 21] : 10.2

Form field AMPA % DSPL @ 10 μM, entry CCCCc1nnc2cnc3cc(Cl)c(Cl)cc3n12 [Compound 7] : 4.2

***
Form field AMPA % DSPL @ 10 μM, entry O=c1[nH]c2c(Cl)cccc2c2ccnn12 [Compound 30] : 14.8

Form field AMPA % DSPL @ 10 μM, entry O=c1[nH]c2cc([N+](=O)[O-])ccc2n2nnnc12 [Compound 24] : 38.4

Form field AMPA % DSPL @ 10 μM, entry O=[N+]([O-])c1ccc2c(c1)ncc1nnnn12 [Compound 23, 7-nitrotetrazolo[1,5-a]quinoxaline] : 1.0

Form field AMPA % DSPL @ 10 μM, entry O=c1[nH]c2cc(C(F)(F)F)ccc2c2ccnn12 [Compound 35] : 54.8

Form field AMPA % DSPL @ 10 μM, entry Cc1nnc2cnc3cc(Cl)c(Cl)cc3n12 [Compound 1] : 35.1

Form field AMPA % DSPL @ 10 μM, entry [N-]=[N+]=Nc1cc2c(cc1F)ncc1nnnn12 [Compound 26, 7-fluoro-8-azidotetrazoloquinoxaline] : -1.8
